Values from patent US7470680B2

Biological target: CGRP receptor (Homo sapiens, UniProt O60894+Q16602)
Sequence (Q16602 23-461): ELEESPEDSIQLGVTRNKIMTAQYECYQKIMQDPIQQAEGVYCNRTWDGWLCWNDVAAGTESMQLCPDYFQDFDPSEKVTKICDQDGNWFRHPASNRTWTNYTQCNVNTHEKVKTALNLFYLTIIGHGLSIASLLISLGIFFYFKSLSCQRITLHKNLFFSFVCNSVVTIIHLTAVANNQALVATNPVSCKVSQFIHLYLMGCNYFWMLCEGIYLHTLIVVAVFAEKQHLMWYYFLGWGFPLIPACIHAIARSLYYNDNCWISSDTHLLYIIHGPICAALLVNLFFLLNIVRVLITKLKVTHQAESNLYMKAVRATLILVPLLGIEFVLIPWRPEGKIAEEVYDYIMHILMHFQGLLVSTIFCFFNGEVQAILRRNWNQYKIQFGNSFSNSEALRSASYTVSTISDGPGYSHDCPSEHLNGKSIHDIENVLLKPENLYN
Sequence (O60894 27-148): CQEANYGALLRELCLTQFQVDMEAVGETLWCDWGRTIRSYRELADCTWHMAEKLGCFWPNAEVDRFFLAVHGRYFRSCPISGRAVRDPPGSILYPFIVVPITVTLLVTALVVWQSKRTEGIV
Test: CGRP radioligand binding assay ([125I]-CGRP displacement, SK-N-MC homogenate)
Set-up: endogenous in cells; host or cells: SK-N-MC cells (homogenate/membrane pellet)
Settings: Table 1; displacement of [125I]-CGRP, SK-N-MC membranes
pIC50: −log10 of the molar value.
reported.property: pIC50

Value wanted: pIC50 (CGRP receptor (Homo sapiens, UniProt O60894+Q16602)) of entry O=C(C[C@@H]1Cc2cc(Cl)c3[nH]nc(Cl)c3c2CN(CCN2CCCCC2)C1=O)N1CCC(n2c(=O)[nH]c3ncccc32)CC1
8.00 to 11.00

Value wanted: pIC50 (CGRP receptor (Homo sapiens, UniProt O60894+Q16602)) of entry CC(C)(C)CN1Cc2c(cc(Cl)c3[nH]ncc23)C[C@@H](CC(=O)N2CCC(c3cc4scc(Br)c4[nH]c3=O)CC2)C1=O
8.00 to 11.00

Value wanted: pIC50 (CGRP receptor (Homo sapiens, UniProt O60894+Q16602)) of entry O=C(C[C@@H]1Cc2cc(Cl)c3[nH]ncc3c2CN(CC(F)(F)F)C1=O)N1CCC(n2c(=O)[nH]c3ccccc32)CC1
8.00 to 11.00

Value wanted: pIC50 (CGRP receptor (Homo sapiens, UniProt O60894+Q16602)) of entry CC(C)(C)CN1Cc2c(cc(Cl)c3[nH]ccc23)C[C@@H](CC(=O)N2CCC(c3cc4sccc4[nH]c3=O)CC2)C1=O
8.00 to 11.00
